Could you please report measured growth for the items listed next?
system: UACC-257 melanoma; assay: NCI-60 one-dose screen, 48 h (100 = growth as untreated, 0 = no growth, -100 = all killed); conditions: 10 µM unless noted
The panel holds about 83,000 compounds, 20% with a hit somewhere; the sample as a whole holds those more often.
Unit % implied. Number only.

Param item = Cn1ccc(=O)nc1 ; retrieve measured growth. 88.3

Endpoint output: growth of Cc1ccc2c(-n3nc(C#N)c(C#N)c3N)cc(=O)[nH]c2c1 . Value? 87.9

Which measured growth value corresponds to COc1ccc2c(c1)c(-c1nc(-c3c[nH]c4ncccc34)cs1)cn2CCO ? 91

// lookup growth for CCOC(=O)C1=C(C)/C(=C\c2[nH]c(C)c(C(=O)OCC)c2C)N=C1C 88.9

Consider the compound O=C1/C(=C\c2ccccn2)c2ccccc2N1c1c(Cl)cccc1Cl and give its measured growth. 59.3
